- tested_target: IDH1 R132H (Homo sapiens, UniProt O75874, R132H)
- Sequence (O75874 whole entry R132H): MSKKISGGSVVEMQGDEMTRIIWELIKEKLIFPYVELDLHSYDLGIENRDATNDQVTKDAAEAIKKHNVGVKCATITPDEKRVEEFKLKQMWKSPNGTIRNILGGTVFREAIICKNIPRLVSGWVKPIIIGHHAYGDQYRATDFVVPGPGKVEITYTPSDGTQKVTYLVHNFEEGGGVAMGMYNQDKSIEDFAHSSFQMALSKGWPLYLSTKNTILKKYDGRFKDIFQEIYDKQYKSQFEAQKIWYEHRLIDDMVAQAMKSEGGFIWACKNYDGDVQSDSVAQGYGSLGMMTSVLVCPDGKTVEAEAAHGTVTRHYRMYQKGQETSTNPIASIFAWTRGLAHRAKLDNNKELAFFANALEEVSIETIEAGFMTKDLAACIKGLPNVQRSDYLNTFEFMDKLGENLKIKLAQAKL
- test_summary: IDH1 R132H enzymatic assay (NADPH depletion coupled to diaphorase/resazurin)
- Type: biochemical
- condition_notes: IDH1 R132H enzymatic inhibition, IC50 class
pIC50: −log10 of the molar value.
Let's look at some molecules and their measured pIC50.

CCc1cccc(CC)c1-n1c(C)c(C(=O)NC2CCNC2)cc(-c2nc(-c3ccc(Cl)cc3)cs2)c1=O (stereo not shown) has a reported pIC50 of 5.30 to 6.00

---
Entry CC1(C)CC(=O)c2cc(-c3nc(-c4ccc(Cl)cc4)cs3)c(=O)n(-c3cc(C(F)(F)F)ccc3N3CCOCC3)c2C1 , pIC50 reported as 5.30 to 6.00

Lab book: pIC50 of CCOC(=O)c1c(O)c(-c2nc(-c3ccc(Cl)cc3)cs2)c(=O)n(-c2c(CC)cccc2CC)c1C noted as 4.70 to 5.30

In plain terms, CCc1cccc(CC)c1-n1c(C)c(C(=O)N2CCNCC2)c(O)c(C(=O)Nc2nc(-c3ccc(Cl)cc3)cs2)c1=O has a documented pIC50 of < 4.70

Kindly note the recorded pIC50 for COc1cc(N)ccc1-n1c2c(cc(-c3nc(-c4ccc(Cl)cc4)cs3)c1=O)C(=O)CC(C)(C)C2 , which is 5.30 to 6.00

Given item CCc1cccc(CC)c1-n1c(C(C)C)c(C(=O)N2CCN[C@@H](C(=O)OC)C2)cc(-c2nc(-c3ccc(Cl)cc3)cs2)c1=O , the value recorded as its pIC50 is 5.30 to 6.00

Data point: CC(C)=Cc1c(C(=O)N2CCNCC2)cc(-c2nc(-c3ccc(Cl)cc3)cs2)c(=O)n1-c1ccccc1 ; pIC50 = 6.00 to 6.52

====

- tested_target: IDH1 R132H (Homo sapiens, UniProt O75874, R132H)
- test_summary: IDH1 R132H enzymatic assay (NADPH depletion coupled to diaphorase/resazurin)
- Assay type: biochemical
- condition_notes: enzymatic inhibition, IDH1 R132H
- Method: Assays were conducted in a 1536-well black solid-bottom plate with a final assay volume of 9 μL. Specifically, for IDH1 R132H, 3 μL of enzyme (4 mM β-ME, 0.0005 mg/mL IDH1 R132H, 150 mM NaCl, 20 mM Tris pH 7.5, 10 mM MgCl2, 0.05% BSA) were added to the plate, followed by the addition of 23 nL of test compound in DMSO. […]
pIC50: −log10 of the molar value.
assay_endpoint: pIC50

Data point: CC(C)=Cc1c(C(=O)N2CCNCC2)cc(-c2nc(-c3ccc(Cl)cc3)cs2)c(=O)n1-c1cc(C)ccc1OC(C)C ; pIC50 = > 6.52

Entry CCOc1ccc(C)cc1-n1c(C=C(C)C)c(C(=O)N2CCNCC2)cc(-c2nc(-c3ccc(Cl)cc3)cs2)c1=O ; pIC50 = > 6.52

Lookup result for CCc1cccc(CC)c1-n1c(C2CCOCC2)c(C(=O)N2CCNCC2)cc(-c2nc(-c3ccc(Cl)cc3)cs2)c1=O ; measured pIC50: 5.30 to 6.00

Looking up CCc1cccc(CC)c1-n1c(CC2CCOC2)c(C(=O)N2CCNCC2)cc(-c2nc(-c3ccc(Cl)cc3)cs2)c1=O (stereo not drawn) , I see its pIC50 listed as > 6.52

The recorded pIC50 for CCc1cccc(CC)c1-n1c(CC(C)C)c(C(=O)N2CCNCC2)cc(-c2nc(-c3ccc(Cl)c(F)c3)c(C)s2)c1=O is > 6.52

Record summary for CCc1cccc(CC)c1-n1c(CC2CCNCC2)c(C(=O)N2CCNCC2)cc(-c2nc(-c3ccc(Cl)cc3)cs2)c1=O : reported pIC50 = < 4.70

Moving on to another molecule below.
The recorded pIC50 for CCc1cccc(CC)c1-n1c(C=C(C)C)c(C(=O)N2CCNCC2)cc(-c2nc(-c3ccc(C(F)(F)F)cn3)cs2)c1=O is > 6.52

====

- tested_target: IDH1 R132C (Homo sapiens, UniProt O75874, R132C)
- Sequence (O75874 whole entry R132C): as the sequence (O75874 whole entry R132H) above, with H132C counted along it
- test_summary: IDH1 R132C enzymatic assay (NADPH depletion coupled to diaphorase/resazurin)
- Assay type: biochemical
- condition_notes: IDH1 R132C enzymatic inhibition, IC50 class
assay_endpoint: IC50

Per the records, this molecule ( CCc1cccc(CC)c1-n1c(C)c(C(=O)NC2CCCC2)cc(-c2nc(-c3ccc(Cl)cc3)cs2)c1=O [Compound 7] ) has IC50 equal to 1000 to 5000 nM

Quick note, IC50 for CCc1cccc(CC)c1-n1c(C=C(C)C)c(C(=O)N2CCNC(C)C2C)cc(-c2nc(-c3ccc(Cl)cc3)cs2)c1=O (stereo not drawn) [Compound 646] landed at < 300 nM

Quick note, IC50 for CCc1cccc(CC)c1-n1c(C)c(C(=O)N2CCNC[C@H]2C)cc(-c2nc(-c3ccc(Cl)cc3)cs2)c1=O [Compound 142] landed at 300 to 1000 nM

New cases:
Per the record, CCc1cccc(CC)c1-n1c(CC(C)C)c(C(=O)NC)cc(-c2nc(-c3ccc(Cl)cc3)cs2)c1=O [Compound 33] has IC50 of < 300 nM

====

# maps each entry to its IC50
- tested_target: IDH1 R132H (Homo sapiens, UniProt O75874, R132H)
- test_summary: IDH1 R132H enzymatic assay (NADPH depletion coupled to diaphorase/resazurin)
- Type: biochemical
- condition_notes: enzymatic inhibition, IDH1 R132H
- Experimental: Assays were conducted in a 1536-well black solid-bottom plate with a final assay volume of 9 μL. Specifically, for IDH1 R132H, 3 μL of enzyme (4 mM β-ME, 0.0005 mg/mL IDH1 R132H, 150 mM NaCl, 20 mM Tris pH 7.5, 10 mM MgCl2, 0.05% BSA) were added to the plate, followed by the addition of 23 nL of test compound in DMSO. […]

Example entries and their recorded answers appear below.
Value sought: IC50, system IDH1 R132H (Homo sapiens, UniProt O75874, R132H), item CC1(C)CC(=O)c2cc(-c3nc(-c4ccc(Cl)cc4)cs3)c(=O)n(-c3ccc(Cl)cc3Cl)c2C1 . Result: > 20 µM

# IC50 measured on IDH1 R132H (Homo sapiens, UniProt O75874, R132H) for item CCc1cccc(CC)c1-n1c(C=C(C)C)c(C(=O)N2CCNCC2COC)cc(-c2nc(-c3ccc(Cl)cc3)cs2)c1=O (centres unmarked) = < 0.3 µM

# IC50 measured on IDH1 R132H (Homo sapiens, UniProt O75874, R132H) for item CCc1cccc(CC)c1-n1c(CC(C)C)c(C(=O)N2CCNCC2)cc(-c2nc(Nc3ccc(Cl)cc3)c(C)s2)c1=O = 5 to 20 µM

Response field IC50 (IDH1 R132H (Homo sapiens, UniProt O75874, R132H)) for item CCc1ncc(F)cc1-n1c(C=C(C)C)c(C(=O)N2CCNCC2)cc(-c2nc(-c3ccc(Cl)cc3)cs2)c1=O : < 0.3 µM

More entries:
The observed IC50 for O=C1CCCc2c1cc(-c1nc(-c3ccc(Cl)cc3)cs1)c(=O)n2-c1ccccc1CCO when tested with IDH1 R132H (Homo sapiens, UniProt O75874, R132H) stands at 5 to 20 µM

Readout IC50 for CCc1ccc(N2CCN(C)CC2)c(CC)c1-n1c2c(cc(-c3nc(-c4ccc(Cl)cc4)cs3)c1=O)C(=O)CC(C)(C)C2 , test system IDH1 R132H (Homo sapiens, UniProt O75874, R132H), was 5 to 20 µM

Considering CCc1cccc(CC)c1-n1c(C=C(C)C)c(C(=O)N2CCNC(=O)C2c2ccccc2)cc(-c2nc(-c3ccc(Cl)cc3)cs2)c1=O (centres unmarked) , its IC50 with IDH1 R132H (Homo sapiens, UniProt O75874, R132H) was recorded as 0.3 to 1 µM

====

- tested_target: IDH1 R132C (Homo sapiens, UniProt O75874, R132C)
- test_summary: IDH1 R132C enzymatic assay (NADPH depletion coupled to diaphorase/resazurin)
- Type: biochemical
- condition_notes: IDH1 R132C enzymatic inhibition, IC50 class
IC50 reference

Consider CCc1cccc(CC)c1-n1c(C)c(C(=O)NCCN)cc(-c2nc(-c3ccc(Cl)cc3)cs2)c1=O [Compound 303] . Its measured IC50 is 1000 to 5000 nM

Sure, the documented IC50 for CCc1cccc(CC)c1-n1c(CC(C)C)c(C(=O)N2CCNCC2C(=O)O)cc(-c2nc(-c3ccc(Cl)cc3)cs2)c1=O (stereo not shown) [Compound 75] is 300 to 1000 nM

Quick note, IC50 for CCc1cccc(CC)c1-n1c(C=C(C)C)c(C(=O)N2CCN[C@@H](C(=O)O)C2)cc(-c2nc(-c3ccc(C(F)(F)F)cc3)cs2)c1=O [Compound 641] landed at < 300 nM

---
Lab book: IC50 of CC1(C)CC(=O)c2cc(-c3nc(-c4ccc(Cl)cc4)cs3)c(=O)n(-c3ccccc3CO)c2C1 [Compound 269] noted as 1000 to 5000 nM

Kindly note the recorded IC50 for CC(C)=Cc1c(C(=O)N2CCNCC2)cc(-c2nc(-c3ccc(Cl)cc3)cs2)c(=O)n1-c1cc(C)ccc1Cl [Compound 357] , which is < 300 nM

IC50 reported for this compound CCc1cccc(CC)c1-n1c(C=C(C)C)c(C(=O)N2CCNCC2)cc(-c2nc(-c3ccc(Cl)cn3)cs2)c1=O [Compound 377] : < 300 nM

The compound CCOc1ccccc1-n1c2c(cc(-c3nc(-c4ccc(Cl)cc4)cs3)c1=O)C(=O)CC(C)(C)C2 [Compound 212] showed IC50 equal to 300 to 1000 nM
